All values here come from patent US20250213573A1.

# experimental protocol: Saturation solubility test of the compound of formula I in different solvents
# Format: physicochemical
# experimental conditions: aqueous buffer, thermodynamic from solid; saturation solubility in pH 2 phosphate buffer
quantity name: solubility (µg/mL)
Give bare numbers, in µg/mL.

For the compound CCS(=O)(=O)N1CC(C(CC#N)n2cc(-c3nc(Nc4cnn(C)c4)nc4ccsc34)cn2)C1 (stereo not shown) , report solubility.
16

====

# experimental protocol: Saturation solubility test of the compound of formula I in different solvents
# Assay type: physicochemical
# experimental conditions: oil or lipid, thermodynamic from solid; saturation solubility in Oleic acid
quantity name: solubility (µg/mL)
Numbers only, in µg/mL.

For the compound CCS(=O)(=O)N1CC(C(CC#N)n2cc(-c3nc(Nc4cnn(C)c4)nc4ccsc34)cn2)C1 (stereo not shown) , report solubility.
230
